# experiment: Oral bioavailability in dog at 2 mg/kg, iv
# Assay type: ADME, organism-based, Canis lupus familiaris
# measurementContext: in vivo
outcomeMeasure: bioavailability (%)
Answers are plain numbers, in %.

// Cn1cc(Nc2nc(N)nc(-c3cccc(-n4ccc5cc(C6CC6)cc(F)c5c4=O)c3CO)n2)cn1.O=S(=O)(O)O : bioavailability value = 43.7

====

# experiment: AUC (0 to infinity) in mouse at 10 mg/kg, po
# Format: ADME, organism-based
# Parameters: dose 10 mg/kg, time infinity, route oral
# measurementContext: in vivo
outcomeMeasure: AUC(0-inf) (ng·h/mL)
One number for each entry, in ng·h/mL.

// Cn1cc(Nc2nc(N)nc(-c3cccc(-n4ccc5cc(C6CC6)cc(F)c5c4=O)c3CO)n2)cn1 : AUC(0-inf) value = 10200

FYI, the data here is from ChEMBL document CHEMBL4196213.
